- assay-info: amyloid nucleation score (Sup35N fusion, yeast selection) (log enrichment); library NNK2; higher = more nucleation; inactive = no reads after selection;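 note: zero at mode of non-aggregating sequences after 7 days selection at 30°C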
Note: every record was labeled by where its amyloid nucleation score sits among L = under -0.5, M = from -0.5 up to 2, H = 2 and over

Record excerpt, results attached:
VQSGWTSKGVLPQVANRTLR; M
LAAVLVHAWFVKRLRMPNHH; M
AIWVYRPLVIQGTFGIRPA; H
WECYLFFCDIVGVGVHWRSS; L
CHHQRYGSGFRLRNSLTVGS; M
MDKCETEMYIMSAHVFRRLW; H

Bin? `MHQSQVMSLSDPAAGKSFWV`
L

Bin? `RVFKDTRRIG`
L
